A collection of molecules and their measured pIC50
molecular target: Epidermal growth factor receptor (Homo sapiens, UniProt P00533, L858R/T790M)
Sequence (P00533 25-1210 T790M/L858R limits assumed): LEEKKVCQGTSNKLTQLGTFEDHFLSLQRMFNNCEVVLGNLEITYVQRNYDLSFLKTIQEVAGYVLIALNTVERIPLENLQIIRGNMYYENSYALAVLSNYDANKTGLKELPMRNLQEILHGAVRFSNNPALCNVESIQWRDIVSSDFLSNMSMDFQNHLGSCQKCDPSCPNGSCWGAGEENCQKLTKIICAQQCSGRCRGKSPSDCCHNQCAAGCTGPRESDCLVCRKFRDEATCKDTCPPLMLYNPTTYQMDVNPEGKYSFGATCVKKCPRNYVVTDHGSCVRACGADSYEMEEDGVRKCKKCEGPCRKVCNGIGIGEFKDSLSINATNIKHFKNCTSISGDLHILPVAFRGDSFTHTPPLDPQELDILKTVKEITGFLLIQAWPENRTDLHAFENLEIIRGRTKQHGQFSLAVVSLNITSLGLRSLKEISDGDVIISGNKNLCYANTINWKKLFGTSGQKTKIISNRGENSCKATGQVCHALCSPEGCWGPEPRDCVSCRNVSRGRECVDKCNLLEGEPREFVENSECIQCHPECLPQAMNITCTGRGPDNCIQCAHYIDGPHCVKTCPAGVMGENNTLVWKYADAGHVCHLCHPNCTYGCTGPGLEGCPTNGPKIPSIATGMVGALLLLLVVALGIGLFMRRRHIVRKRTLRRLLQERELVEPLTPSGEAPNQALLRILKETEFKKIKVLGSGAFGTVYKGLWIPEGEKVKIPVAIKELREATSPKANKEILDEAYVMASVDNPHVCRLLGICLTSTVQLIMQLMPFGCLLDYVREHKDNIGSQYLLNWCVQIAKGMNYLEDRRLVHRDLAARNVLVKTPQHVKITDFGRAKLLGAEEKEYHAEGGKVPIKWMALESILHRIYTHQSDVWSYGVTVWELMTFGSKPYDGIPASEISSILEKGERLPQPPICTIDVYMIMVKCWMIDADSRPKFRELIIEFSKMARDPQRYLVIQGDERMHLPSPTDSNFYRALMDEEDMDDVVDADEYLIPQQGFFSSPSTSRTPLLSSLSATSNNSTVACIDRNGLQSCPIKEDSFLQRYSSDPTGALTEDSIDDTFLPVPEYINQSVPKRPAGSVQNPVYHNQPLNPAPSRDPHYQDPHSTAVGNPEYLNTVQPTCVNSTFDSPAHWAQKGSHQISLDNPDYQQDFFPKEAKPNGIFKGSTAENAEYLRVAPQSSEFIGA
For clarity, pIC50 is expressed as the negative log10 of concentration in mol/L.

C=CC(=O)Nc1cc(Nc2n[nH]c3cc(-c4cncc5ccccc45)ccc23)c(OC)cc1N(C)CCN(C)C	8.22
C=CC(=O)Nc1cc(Nc2n[nH]c3cc(-c4cccnc4)ccc23)c(OC)cc1N(C)CCN(C)C	7.82
C=CC(=O)Nc1cc(Nc2n[nH]c3cc(-c4cccc(F)c4)ccc23)c(OC)cc1N(C)CCN(C)C	8.30

Now, please, on to the next molecule.
Entry "C=CC(=O)Nc1cc(Nc2n[nH]c3cc(-c4ccc(F)cc4)ccc23)c(OC)cc1N(C)CCN(C)C" has what pIC50? 8.00
